testDetails: Time to reach maximum plasma concentration was determined in mouse after 5 mg/kg (i.v.) and 6 mg/kg (p.o.) administration
Assay type: ADME, organism-based
testContext: po
readoutName: Tmax
Give the value; after it, write the unit.

Request: Given "COc1cc(-c2nn([C@H]3CC[C@H](N4CCN(C)CC4)CC3)c3ncnc(N)c23)ccc1NC(=O)c1cc2ccccc2n1C" , respond with its Tmax.
Result: 8 h

---

Please respond with reported ED50 for every item in the list.
system: Interleukin-2 (Mus musculus) (UniProt P04351)
testDetails: Effective concentration to suppress interleukin-2 production was measured after 2.5 hours of oral administration in mice
Type: functional, organism-based
Express the result in mg/kg but write the number alone.

Request: Given "COc1cc(-c2nn([C@H]3CC[C@H](N4CCN(C)CC4)CC3)c3ncnc(N)c23)ccc1NC(=O)c1cc2ccccc2o1" , respond with its ED50.
Result: 8.5

Request: Given "COc1cc(-c2nn([C@H]3CC[C@H](N4CCN(C)CC4)CC3)c3ncnc(N)c23)ccc1NC(=O)c1cc2ccccc2n1C" , respond with its ED50.
Result: 1.5

Request: Given "COc1cc(-c2nn([C@H]3CC[C@H](N4CCN(C)CC4)CC3)c3ncnc(N)c23)ccc1NC(=O)c1cc2ccccc2[nH]1" , respond with its ED50.
Result: 7

Request: Given "COc1cc(-c2nn([C@H]3CC[C@H](N4CCN(C)CC4)CC3)c3ncnc(N)c23)ccc1NC(=O)OCc1ccccc1" , respond with its ED50.
Result: 3

---

testDetails: Half life was determined in mouse after 5 mg/kg (i.v.) and 6 mg/kg (p.o.) administration
Assay type: ADME, organism-based
testContext: in vivo
readoutName: half-life (min)
Express the result in min but write the number alone.

Request: Given "COc1cc(-c2nn([C@H]3CC[C@H](N4CCN(C)CC4)CC3)c3ncnc(N)c23)ccc1NC(=O)c1cc2ccccc2n1C" , respond with its half-life.
Result: 600

---

testDetails: Bioavailability was determined in mouse after 5 mg/kg (i.v.) and 6 mg/kg (p.o.) administration
Type: ADME, organism-based
testContext: in vivo, po
readoutName: bioavailability (%)
Express the result in % but write the number alone.

Request: Given "COc1cc(-c2nn([C@H]3CC[C@H](N4CCN(C)CC4)CC3)c3ncnc(N)c23)ccc1NC(=O)c1cc2ccccc2n1C" , respond with its bioavailability.
Result: 30

---

testDetails: Maximum plasma concentration of compound was determined in mouse after 5 mg/kg (i.v.) and 6 mg/kg (p.o.) administration
Type: ADME, organism-based
testContext: po
readoutName: Cmax
Give the value; after it, write the unit.

Request: Given "COc1cc(-c2nn([C@H]3CC[C@H](N4CCN(C)CC4)CC3)c3ncnc(N)c23)ccc1NC(=O)c1cc2ccccc2n1C" , respond with its Cmax.
Result: 51 ng/mL

---

Please respond with reported ED90 for every item in the list.
system: Interleukin-2 (Mus musculus)
testDetails: Effective concentration to suppress interleukin-2 production was measured after 2.5 hours of oral administration in mice
Type: functional, organism-based
Give the value; after it, write the unit.

Request: State, for Interleukin-2 (Mus musculus), measured ED90 of the compound listed here: "COc1cc(-c2nn([C@H]3CC[C@H](N4CCN(C)CC4)CC3)c3ncnc(N)c23)ccc1NC(=O)c1cc2ccccc2n1C"
Result: 6 mg/kg

Request: State, for Interleukin-2 (Mus musculus), measured ED90 of the compound listed here: "COc1cc(-c2nn([C@H]3CC[C@H](N4CCN(C)CC4)CC3)c3ncnc(N)c23)ccc1NC(=O)c1cc2ccccc2o1"
Result: 12.5 mg/kg

Request: State, for Interleukin-2 (Mus musculus), measured ED90 of the compound listed here: "COc1cc(-c2nn([C@H]3CC[C@H](N4CCN(C)CC4)CC3)c3ncnc(N)c23)ccc1NC(=O)c1cc2ccccc2[nH]1"
Result: 12.5 mg/kg

Request: State, for Interleukin-2 (Mus musculus), measured ED90 of the compound listed here: "COc1cc(-c2nn([C@H]3CC[C@H](N4CCN(C)CC4)CC3)c3ncnc(N)c23)ccc1NC(=O)OCc1ccccc1"
Result: 14 mg/kg

---

system: Interleukin-2 (Mus musculus)
testDetails: Percent inhibition of interleukin-2 production by compound was measured after 18 hours of oral administration in mice
Format: functional, organism-based
testContext: concentration not given here
readoutName: inhibition (%)
Express the result in % but write the number alone.

Request: Given "COc1cc(-c2nn([C@H]3CC[C@H](N4CCN(C)CC4)CC3)c3ncnc(N)c23)ccc1NC(=O)OCc1ccccc1" , respond with its inhibition.
Result: 14

Request: Given "COc1cc(-c2nn([C@H]3CC[C@H](N4CCN(C)CC4)CC3)c3ncnc(N)c23)ccc1NC(=O)c1cc2ccccc2[nH]1" , respond with its inhibition.
Result: 33

---

testDetails: Volume of distribution was determined in dog after 1 mg/kg (i.v.) and 5 mg/kg (p.o.) administration
Assay type: ADME, organism-based, Canis lupus familiaris
testContext: in vivo, iv
readoutName: Vd (L/kg)
Express the result in L/kg but write the number alone.

Request: Given "COc1cc(-c2nn([C@H]3CC[C@H](N4CCN(C)CC4)CC3)c3ncnc(N)c23)ccc1NC(=O)c1cc2ccccc2n1C" , respond with its Vd.
Result: 25

---

system: Interleukin-2 (Mus musculus) (UniProt P04351)
Sequence (whole entry): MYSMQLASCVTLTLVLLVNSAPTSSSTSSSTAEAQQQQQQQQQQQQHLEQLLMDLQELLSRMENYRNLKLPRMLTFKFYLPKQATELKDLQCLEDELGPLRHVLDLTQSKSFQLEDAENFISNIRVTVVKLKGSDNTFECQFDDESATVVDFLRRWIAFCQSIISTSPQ
testDetails: Percent inhibition of interleukin-2 production by compound was measured after 8 hours of oral administration in mice
Type: functional, organism-based
testContext: concentration not given here
readoutName: inhibition (%)
Express the result in % but write the number alone.

Request: Given "COc1cc(-c2nn([C@H]3CC[C@H](N4CCN(C)CC4)CC3)c3ncnc(N)c23)ccc1NC(=O)OCc1ccccc1" , respond with its inhibition.
Result: 51

Request: Given "COc1cc(-c2nn([C@H]3CC[C@H](N4CCN(C)CC4)CC3)c3ncnc(N)c23)ccc1NC(=O)c1cc2ccccc2o1" , respond with its inhibition.
Result: 48

Request: Given "COc1cc(-c2nn([C@H]3CC[C@H](N4CCN(C)CC4)CC3)c3ncnc(N)c23)ccc1NC(=O)c1cc2ccccc2[nH]1" , respond with its inhibition.
Result: 79
